# Test system: RXR:RAR heterodimer
# Assay Details: RXR:RAR heterodimer co-transfection assay (RARa Synergy CTF) in CV-1 cells
# Type: cell-based, human
# Test Settings: agonist efficacy

# Compound, RARa Synergy CTF % Efficacy (%)
records = [
    ("C/C(=C/C=C(F)/C(C)=C/C(=O)O)c1cc(C(C)(C)C)cc(C(C)(C)C)c1OCC(F)F [Example 1]", 28),
    ("C/C(=C/C(F)=C/C(C)=C/C(=O)O)c1cc(C(C)(C)C)cc(C(C)(C)C)c1OCC(F)F [Example 2]", 112),
    ("CCOc1c(\\C(=C/C=C/C(C)=C/C(=O)O)C(F)(F)F)cc(C(C)(C)C)cc1C(C)(C)C [Example 5]", 7),
    ("CCCCOc1c(\\C(C)=C/C=C/C(=C\\C(=O)O)C(F)(F)F)cc(C(C)C)cc1C(C)C [Example 4]", 6),
    ("CCCCOc1c(\\C(C)=C/C=C/C(=C/C(=O)O)C(F)(F)F)cc(C(C)C)cc1C(C)C [Example 3]", 6),
]

====

# Test system: RXR:RAR heterodimer
# Assay Details: RXR:RAR heterodimer co-transfection assay (RARa Synergy CTF) in CV-1 cells
# Format: cell-based, human

# Smiles Input, Target Of Assay, RARa Synergy CTF fold induction
records = [
    ("C/C(=C/C(F)=C/C(C)=C/C(=O)O)c1cc(C(C)(C)C)cc(C(C)(C)C)c1OCC(F)F", "RXR:RAR heterodimer", 9),
    ("CCCCOc1c(\\C(C)=C/C=C/C(=C/C(=O)O)C(F)(F)F)cc(C(C)C)cc1C(C)C", "RXR:RAR heterodimer", 1),
    ("C/C(=C/C=C(F)/C(C)=C/C(=O)O)c1cc(C(C)(C)C)cc(C(C)(C)C)c1OCC(F)F", "RXR:RAR heterodimer", 3),
    ("CCCCOc1c(\\C(C)=C/C=C/C(=C\\C(=O)O)C(F)(F)F)cc(C(C)C)cc1C(C)C", "RXR:RAR heterodimer", 1),
]

====

# Target Of Assay: RXRα:RXRα homodimer (Homo sapiens, UniProt P19793)
# Assay Details: RXR homodimer co-transfection assay (antagonist) in CV-1 cells
# Format: cell-based
# Test Settings: CV-1 cells, antagonist efficacy as % of maximal inhibition; read-out: RXR Antagonist CTF % Efficacy
We begin with a simple list: items and their reported Emax.
Endpoint: Emax (%)

# Smiles Input, Measured
data = [
    ("CCCCOc1c(\\C(C)=C/C=C/C(=C\\C(=O)O)C(F)(F)F)cc(C(C)C)cc1C(C)C", 29),
    ("C/C(=C/C=C(F)/C(C)=C/C(=O)O)c1cc(C(C)(C)C)cc(C(C)(C)C)c1OCC(F)F", 100),
    ("C/C(=C/C(F)=C/C(C)=C/C(=O)O)c1cc(C(C)(C)C)cc(C(C)(C)C)c1OCC(F)F", 100),
    ("CCCCOc1c(\\C(C)=C/C=C/C(=C/C(=O)O)C(F)(F)F)cc(C(C)C)cc1C(C)C", 83),
]

====

We begin with a simple list: items and their reported pIC50.
# Target Of Assay: RXRα:RXRα homodimer (Homo sapiens, UniProt P19793)
# Sequence (P19793 1-462): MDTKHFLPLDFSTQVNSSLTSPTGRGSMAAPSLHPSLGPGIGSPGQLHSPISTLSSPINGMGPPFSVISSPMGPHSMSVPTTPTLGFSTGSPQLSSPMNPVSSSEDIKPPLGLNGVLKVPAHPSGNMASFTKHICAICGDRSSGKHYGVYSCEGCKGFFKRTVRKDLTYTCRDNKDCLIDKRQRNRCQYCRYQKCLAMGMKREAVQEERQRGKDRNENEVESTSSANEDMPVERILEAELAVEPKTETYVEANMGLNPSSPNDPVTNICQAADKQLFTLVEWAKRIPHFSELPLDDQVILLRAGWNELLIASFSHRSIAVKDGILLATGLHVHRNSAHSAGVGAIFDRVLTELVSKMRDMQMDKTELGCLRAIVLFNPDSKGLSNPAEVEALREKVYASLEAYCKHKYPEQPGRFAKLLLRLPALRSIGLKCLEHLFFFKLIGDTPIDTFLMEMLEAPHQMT
# Assay Details: RXR homodimer co-transfection assay (antagonist) in CV-1 cells
# Test Settings: CV-1 cells, in the presence of 3.2×10^−8 M LGD1069; read-out: RXR Antagonist CTF IC50
# Text: In the co-transfection assay, cloned cDNA for one or more IRs (e.g. human RARα, RXRα, or PPARγ), alone or in combination (i.e. for heterodimer assays) under the control of a constitutive promoter (e.g., the SV 40, RSV or CMV promoter) is introduced by transfection (a procedure to introduce exogenous genes into cells) into a background cell substantially devoid of endogenous IRs. These introduced gene(s) direct the recipient cells to make the IR protein(s) of interest. […]
pIC50: −log10 of the molar value.

# Molecule, Target Of Assay, pIC50
measured = [
    ("CCCCOc1c(\\C(C)=C/C=C/C(=C/C(=O)O)C(F)(F)F)cc(C(C)C)cc1C(C)C [Example 3]", "RXRα:RXRα homodimer (Homo sapiens, UniProt P19793)", 6.04),
    ("C/C(=C/C(F)=C/C(C)=C/C(=O)O)c1cc(C(C)(C)C)cc(C(C)(C)C)c1OCC(F)F [Example 2]", "RXRα:RXRα homodimer (Homo sapiens, UniProt P19793)", 5.06),
    ("CCOc1c(\\C(=C/C=C/C(C)=C/C(=O)O)C(F)(F)F)cc(C(C)(C)C)cc1C(C)(C)C [Example 5]", "RXRα:RXRα homodimer (Homo sapiens, UniProt P19793)", 7.42),
    ("C/C(=C/C=C(F)/C(C)=C/C(=O)O)c1cc(C(C)(C)C)cc(C(C)(C)C)c1OCC(F)F [Example 1]", "RXRα:RXRα homodimer (Homo sapiens, UniProt P19793)", 5.31),
]
